test: Solubility (mg/mL) in water, buffers, simulated fluids and organic solvents (Table 1); assay type: physicochemical; settings: ethyl acetate, organic solvent or mixture; read-out: Solubility (mg/mL): Ethyl Acetate
measured_attribute: solubility (mg/mL)
Numbers only, in mg/mL.

Report solubility for CCN1CCCC1CNC(=O)c1cc(S(=O)(=O)CC)c(N)cc1OC (racemic) [crystalline racemic amisulpride, reference compound] please. 0.5

* * *

test: Solubility (mg/mL) in water, buffers, simulated fluids and organic solvents (Table 1); format: physicochemical; conditions: acetone/MtBE 1:9, organic solvent or mixture; read-out: Solubility (mg/mL): Acetone/MtBE 1:9
measured_attribute: solubility

Would you kindly share the measured solubility for CCN1CCCC1CNC(=O)c1cc(S(=O)(=O)CC)c(N)cc1OC (racemic) [crystalline racemic amisulpride, reference compound] ? 0.2 mg/mL

* * *

assay: Solubility (mg/mL) in water, buffers, simulated fluids and organic solvents (Table 1); assay type: physicochemical; settings: acetone/MtBE 1:4, organic solvent or mixture; read-out: Solubility (mg/mL): Acetone/MtBE 1:4
measured_attribute: solubility (mg/mL)
Give bare numbers, in mg/mL.

Can you look up the measured solubility of CCN1CCCC1CNC(=O)c1cc(S(=O)(=O)CC)c(N)cc1OC (racemic) [crystalline racemic amisulpride, reference compound] for me? 0.4
